The reported measurements were obtained from patent US7268147B2.

- System Tested: human β2 adrenergic receptor (Homo sapiens, UniProt P07550)
- Sequence (P07550 whole entry): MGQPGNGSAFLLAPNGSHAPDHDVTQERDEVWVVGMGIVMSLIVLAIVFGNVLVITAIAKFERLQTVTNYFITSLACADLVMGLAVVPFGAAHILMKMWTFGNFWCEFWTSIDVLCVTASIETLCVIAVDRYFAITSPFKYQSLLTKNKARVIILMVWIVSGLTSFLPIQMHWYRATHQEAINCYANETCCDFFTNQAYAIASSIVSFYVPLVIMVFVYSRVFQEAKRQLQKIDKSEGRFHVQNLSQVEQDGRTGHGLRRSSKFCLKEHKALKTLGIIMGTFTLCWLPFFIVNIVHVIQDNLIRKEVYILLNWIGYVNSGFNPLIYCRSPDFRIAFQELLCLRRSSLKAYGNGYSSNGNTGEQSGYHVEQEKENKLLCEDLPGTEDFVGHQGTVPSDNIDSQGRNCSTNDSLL
- Test: Cell based cAMP β2 assay (cAMP-Flashplate, CHOhβ2 cells)
- Protocol Conditions: CHO cells recombinantly expressing the human β2 adrenergic receptor
Parameter Measured: EC50 (nM)
// return numeric value only (unit: nM, not printed)

Look over these answered cases.
{"columns": ["Smiles Code", "EC50 (nM)"],
 "data": [
  ["C[C@H](Cc1cccc(CC(=O)NCCc2ccccc2)c1)NC[C@H](O)c1ccc(O)c(CO)c1", 0.056],
  ["COc1cccc(OC)c1CNC(=O)Cc1cccc(C[C@@H](C)NC[C@H](O)c2ccc(O)c(CO)c2)c1", 0.017],
  ["C[C@H](Cc1cccc(CC(=O)NCc2ccc(S(N)(=O)=O)cc2)c1)NC[C@H](O)c1ccc(O)c(CO)c1", 0.007]
]}

Proceeding to the next compound to report its EC50.
Input line: Name the recorded EC50 for C[C@H](Cc1cccc(CC(=O)NCc2ccc(Cl)c(Cl)c2)c1)NC[C@H](O)c1ccc(O)c(CO)c1 .
Output line: 0.024
